Lab note: pKi readings collected with VIM-2 (Escherichia coli) for the following compounds.
Would you please state pKi, meaning minus log10 of the concentration in mol/L, as a bare number?

>  <Compound>
N[C@@H](C(=O)N1CCC(c2ccc(S(=O)(=O)Nc3scnc3C(=O)O)cc2)CC1)c1ccccc1 [Compound 172]

>  <pKi>
7.30

$$$$

O=C(O)c1ncsc1NS(=O)(=O)c1ccc(-c2ccccc2)s1 yielded pKi of 6.32

Cc1c(S(=O)(=O)Nc2scnc2C(=O)O)cnn1-c1ccccc1 yielded pKi of 7.52

O=C(O)c1ncsc1NS(=O)(=O)c1csc2ccccc12 yielded pKi of 6.66

* * *

Lab note: log10 Ki readings collected with VIM-2 (Escherichia coli) for the following compounds.
Annotation: log10 of Ki, nM basis.

Here is how some compounds turned out for log10 Ki.
>  <Compound>
O=C(O)c1ncsc1NS(=O)(=O)N1CCCCC1 [Compound 75]

>  <Quantity measured>
log10 Ki

>  <Numeric value>
2.53

$$$$
>  <Compound>
CN(c1ccccc1)S(=O)(=O)Nc1scnc1C(=O)O [Compound 88]

>  <Quantity measured>
log10 Ki

>  <Numeric value>
2.20

$$$$
>  <Compound>
O=C(O)c1ncsc1NS(=O)(=O)CCc1ccccc1 [Compound 7]

>  <Quantity measured>
log10 Ki

>  <Numeric value>
1.90

$$$$
>  <Compound>
O=C(O)c1nc(-c2ccccc2)sc1NS(=O)(=O)c1ccccc1 [Compound 58]

>  <Quantity measured>
log10 Ki

>  <Numeric value>
2.90

$$$$
>  <Compound>
CN(Cc1ccccc1)S(=O)(=O)Nc1scnc1C(=O)O [Compound 77]

>  <Quantity measured>
log10 Ki

>  <Numeric value>
1.48

$$$$

Continue with the compound presented below.
Query O=C(O)c1ncsc1NS(=O)(=O)CCN1C(=O)c2ccccc2C1=O [Compound 63] on VIM-2 (Escherichia coli); log10 Ki returned: 2.11

* * *

Biological target: NDM-1 (Klebsiella pneumoniae)
Sequence (C7C422 29-270 limits assumed): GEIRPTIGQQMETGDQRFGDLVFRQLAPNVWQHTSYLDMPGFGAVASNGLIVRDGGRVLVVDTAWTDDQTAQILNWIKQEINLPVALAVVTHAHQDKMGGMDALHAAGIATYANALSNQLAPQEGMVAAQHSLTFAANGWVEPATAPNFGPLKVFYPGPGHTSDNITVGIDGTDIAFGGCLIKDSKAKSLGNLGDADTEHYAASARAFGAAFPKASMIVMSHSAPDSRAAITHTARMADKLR
Quantity measured: pKi
Would you please state pKi, meaning minus log10 of the concentration in mol/L, as a bare number?

Here is how some compounds turned out for pKi.
>  <Item smiles>
O=C(O)c1ncsc1NS(=O)(=O)c1ccc(-c2ccccc2)s1

>  <Quantity measured>
pKi

>  <Numeric value>
6.03

$$$$
>  <Item smiles>
O=C(O)c1ncsc1NS(=O)(=O)Cc1ccccc1

>  <Quantity measured>
pKi

>  <Numeric value>
5.60

$$$$

Query O=C(O)c1nc(C(F)(F)F)sc1NS(=O)(=O)Cc1ccccc1Cl on NDM-1 (Klebsiella pneumoniae); pKi returned: 5.57

Query O=C(O)c1ncsc1NS(=O)(=O)c1csc2ccccc12 on NDM-1 (Klebsiella pneumoniae); pKi returned: 6.17

Query O=C(O)c1nc(-c2ccccc2)sc1NS(=O)(=O)c1ccccc1 on NDM-1 (Klebsiella pneumoniae); pKi returned: 5.64

* * *

Biological target: UniProt:C7C422
Quantity measured: pKi
Would you please state pKi, meaning minus log10 of the concentration in mol/L, as a bare number?

>  <Compound>
CN(Cc1ccccc1)S(=O)(=O)Nc1scnc1C(=O)O [Compound 77]

>  <Experimental system>
UniProt:C7C422

>  <pKi>
5.89

$$$$
>  <Compound>
O=C(O)c1ncsc1NS(=O)(=O)c1ccccc1 [Compound 1]

>  <Experimental system>
UniProt:C7C422

>  <pKi>
5.92

$$$$

Continue with the compound presented below.
Query O=C(O)c1ncsc1NS(=O)(=O)CCc1ccccc1 [Compound 7] on UniProt:C7C422; pKi returned: 6.12

* * *

Target: IMP-1 (Serratia marcescens, UniProt P52699)
Sequence (P52699 19-246, species assumed): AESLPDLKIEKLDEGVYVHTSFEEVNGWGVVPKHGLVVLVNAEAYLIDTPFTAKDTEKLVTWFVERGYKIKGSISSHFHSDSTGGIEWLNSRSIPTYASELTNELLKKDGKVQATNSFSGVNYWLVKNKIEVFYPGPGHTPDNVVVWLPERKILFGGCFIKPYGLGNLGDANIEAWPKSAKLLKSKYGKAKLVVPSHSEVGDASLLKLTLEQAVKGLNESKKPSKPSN
Quantity measured: log10(Ki) (log10 of the value in nM)
Annotation: log10 of Ki, nM basis.

Here is how some compounds turned out for log10(Ki).
>  <Compound>
O=C(O)c1ncsc1NS(=O)(=O)CC1CCOCC1 [Compound 111]

>  <Quantity measured>
log10(Ki)

>  <Numeric value>
2.95

$$$$
>  <Compound>
O=C(O)c1ncsc1NS(=O)(=O)N1CCCCC1 [Compound 75]

>  <Quantity measured>
log10(Ki)

>  <Numeric value>
2.97

$$$$
>  <Compound>
O=C(O)c1ncsc1NS(=O)(=O)c1ccc(N2CCCCC2)nc1 [Compound 138]

>  <Quantity measured>
log10(Ki)

>  <Numeric value>
2.11

$$$$
>  <Compound>
CC(c1ccccc1)S(=O)(=O)Nc1scnc1C(=O)O (centres unmarked) [Compound 60]

>  <Quantity measured>
log10(Ki)

>  <Numeric value>
1.85

$$$$

Continue with the compound presented below.
Query O=C(O)c1ncsc1NS(=O)(=O)c1ccc(OC2CCNC2)cc1 (centres unmarked) [Compound 163] on IMP-1 (Serratia marcescens, UniProt P52699); log10(Ki) returned: 3.00

* * *

Target: VIM-2 (Escherichia coli)
Quick rule for you: Ki under 0.3 µM gets label 1, anything else gets label 0.

>  <Molecule>
O=C(O)c1nc(C(F)(F)F)sc1NS(=O)(=O)Cc1ccccc1Cl [Compound 96]

>  <Class name>
label 0

$$$$
>  <Molecule>
O=C(O)c1ncsc1NS(=O)(=O)c1ccccc1 [Compound 1]

>  <Class name>
label 0

$$$$
>  <Molecule>
O=C(O)c1ncsc1NS(=O)(=O)Cc1ccccc1 [Compound 5]

>  <Class name>
label 1

$$$$
>  <Molecule>
N[C@@H](C(=O)N1CCC(c2ccc(S(=O)(=O)Nc3scnc3C(=O)O)cc2)CC1)c1ccccc1 [Compound 173]

>  <Class name>
label 1

$$$$

Problem: Is Ki of O=C(O)c1ncsc1NS(=O)(=O)Cc1cccnc1 [Compound 170] strictly below 0.3 µM?
Result: label 0

Problem: Is Ki of O=C(O)c1ncsc1NS(=O)(=O)CCc1cccnc1 [Compound 151] strictly below 0.3 µM?
Result: label 1

Problem: Is Ki of CC(=O)Nc1ccc(S(=O)(=O)Nc2scnc2C(=O)O)cc1 [Compound 78] strictly below 0.3 µM?
Result: label 0

Problem: Is Ki of O=C(O)c1ncsc1NS(=O)(=O)c1ccc(N2CCCCC2)nc1 [Compound 138] strictly below 0.3 µM?
Result: label 1

Problem: Is Ki of O=C(O)c1ncsc1NS(=O)(=O)c1ccc(OC2CCNC2)cc1 (stereo not shown) [Compound 163] strictly below 0.3 µM?
Result: label 1

Problem: Is Ki of O=C(O)c1ncsc1NS(=O)(=O)CC1CCOCC1 [Compound 111] strictly below 0.3 µM?
Result: label 1

Problem: Is Ki of CC(c1ccccc1)S(=O)(=O)Nc1scnc1C(=O)O (stereo not shown) [Compound 60] strictly below 0.3 µM?
Result: label 1

Problem: Is Ki of Cc1nc(C(=O)O)c(NS(=O)(=O)Cc2ccccc2)s1 [Compound 50] strictly below 0.3 µM?
Result: label 1

Problem: Is Ki of O=C(O)c1ccccn1 [Pyridine-2-carboxylic acid, pyridine-2-carboxylic acid, reference compound] strictly below 0.3 µM?
Result: label 0
